Can you tell me Activity for the items I'm about to list?
target: Polyunsaturated fatty acid 5-lipoxygenase (Mus musculus); assay: Inhibition of leukotriene formation in A-23187-stimulated mouse whole blood using […] ex vivo, activity expressed as percent of control.; format: functional, tissue-based; design: scale not given: the % may be the effect or the level left
// units = %; emit number, no label

Asked: Please list Activity recorded for the molecule NC(=O)N(O)C1CCCc2cc(OCc3ccccc3)ccc21 (single isomer, unassigned; (+))
Given back: 28

Asked: Kindly indicate its recorded Activity. Item: NC(=O)N(O)C1COc2cc(OCc3ccccc3)ccc21 (stereo in doubt; 1a)
Given back: -100

Asked: Supply measured Activity of COc1ccc(COc2ccc3c(c2)CCCC3N(O)C(N)=O)cc1 (stereo not given) in your reply.
Given back: -81

Asked: Complete the entry with Activity for NC(=O)N(O)C1COc2ccc(Oc3ccccc3)cc21 (stereo not given)
Given back: -64

Asked: Tell us which Activity value is on record for NC(=O)N(O)C1CCCc2cc(-c3ccccc3)ccc21 (stereo not given)
Given back: -52

====

Provide the recorded Activity for the entries that follow.
biological target: Polyunsaturated fatty acid 5-lipoxygenase (Mus musculus) (UniProt P48999); assay: Inhibition of leukotriene formation in A-23187-stimulated mouse whole blood using […] ex vivo, activity expressed as percent of control.; format: functional, tissue-based; set-up: scale not given: the % may be the effect or the level left
Sequence (P48999 whole entry): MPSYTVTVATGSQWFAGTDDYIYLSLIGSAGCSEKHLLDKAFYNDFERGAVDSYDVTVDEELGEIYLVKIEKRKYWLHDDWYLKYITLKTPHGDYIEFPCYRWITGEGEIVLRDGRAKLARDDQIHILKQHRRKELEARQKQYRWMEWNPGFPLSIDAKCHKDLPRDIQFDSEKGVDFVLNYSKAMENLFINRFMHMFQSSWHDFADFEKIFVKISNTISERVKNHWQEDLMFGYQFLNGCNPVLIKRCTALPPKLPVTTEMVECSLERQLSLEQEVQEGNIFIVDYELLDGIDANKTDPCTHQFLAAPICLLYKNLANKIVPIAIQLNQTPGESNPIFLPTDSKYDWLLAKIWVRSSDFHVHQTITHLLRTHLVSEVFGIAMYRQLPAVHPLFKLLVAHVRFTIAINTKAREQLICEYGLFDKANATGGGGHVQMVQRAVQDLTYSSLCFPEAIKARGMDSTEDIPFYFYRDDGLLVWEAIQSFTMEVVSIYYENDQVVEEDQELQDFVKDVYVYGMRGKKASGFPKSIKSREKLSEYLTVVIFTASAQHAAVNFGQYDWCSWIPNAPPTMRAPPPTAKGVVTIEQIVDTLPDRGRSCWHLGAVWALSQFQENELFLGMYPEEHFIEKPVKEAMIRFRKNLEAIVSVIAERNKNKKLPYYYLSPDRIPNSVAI
API: value field is a number in %; no unit string.

Asked: Annotate the compound NC(=O)N(O)C1CCCc2c(Oc3ccccc3)cccc21 (stereo unspecified) with its measured Activity.
Given back: -57

Asked: Note down Activity recorded for NC(=O)N(O)C1CCCc2cc(OCc3ccc(Cl)cc3)ccc21 (stereo unspecified)
Given back: -70

Asked: Tell us which Activity value is on record for NC(=O)N(O)C1CCn2c1cc1cc(OCc3ccccc3)ccc12 (stereo unspecified)
Given back: -68

Asked: Return value of Activity for input COc1ccc(COc2ccc3c(c2)OCC3N(O)C(N)=O)cc1 (stereo unspecified) , no commentary.
Given back: -73

Asked: Read the entry NC(=O)N(O)C1CCCc2cc(OCc3ccccc3)ccc21 (stereo in doubt; 3a) and write its reported Activity.
Given back: -67

Asked: Note down Activity recorded for NC(=O)N(O)C1CCCc2ccccc21 (stereo unspecified)
Given back: -30

Asked: Give a short answer stating reported Activity for NC(=O)N(O)C1CCc2cc(OCc3ccccc3)ccc21 (stereo in doubt; (-)2a) .
Given back: 0.9

Asked: Return reported Activity. Input compound: NC(=O)N(O)C1COc2cc(Oc3ccccc3)ccc21 (stereo unspecified)
Given back: -56

Asked: Check the records and state Activity for NC(=O)N(O)C1CCc2cc(Oc3ccccc3)ccc21 (stereo unspecified)
Given back: -88

Asked: Read the entry NC(=O)N(O)C1CCc2cc(OCc3ccccc3)ccc21 (stereo in doubt; 2a) and write its reported Activity.
Given back: -85

Asked: Entry Cc1c2n(c3ccc(Oc4ccccc4)cc13)CCC2N(O)C(N)=O (stereo unspecified) needs its Activity filled in; supply it.
Given back: -26

====

experiment: Compound was administered intravenously in mouse to evaluate plasma clearance values; format: ADME, organism-based; conditions: iv, read-out: Clp
Measurement Type: clearance (mL/min)
// note: answer is a bare numeric in mL/min

Asked: Quote clearance reported for NC(=O)N(O)C1COc2cc(OCc3ccccc3)ccc21 (single isomer, unassigned; (+)) please.
Given back: 8.6
